The measurements presented in this section are drawn from patent US11779649B2.

Assay: PK of Compound (A1) after intravenous dosing in mouse
Format: in vivo
Details: in vivo, 0.4 mg/kg, read-out: Vss
Starred links: 1 amine or outer side, 2 acyl side, 3 side chain; linkers in the order of their positions; H or OH if unused. Positions of bridges follow the written chain, without caps; N, C: chain ends. Non-standard residues stand in square brackets, D forms with d. Residues, ends and D or L forms follow the SMILES beside them. *: point of attachment. Leu(3R-OH,Nα-propionyl) = CCC(=O)N[C@H](C(=O)*)[C@H](O)C(C)C; X1 = CC(C)[C@@H](O[*:3])[C@H](N[*:1])C(=O)[*:2]; NMeT = CN[C@H](C(=O)O)[C@@H](C)O; dPhLac = O=C(O)[C@H](O)Cc1ccccc1; NMeA = CN[C@@H](C)C(=O)O; NMeDha = C=C(NC)C(=O)O
metric: Vd

molecule	testValue
C=C1C(=O)N[C@@H](C)C(=O)N(C)[C@@H](C)C(=O)N[C@@H]([C@H](OC(=O)[C@@H](NC(=O)CC)[C@H](O)C(C)C)C(C)C)C(=O)N(C)[C@@H]([C@@H](C)OC)C(=O)O[C@H](C(C)C)[C@H](NC(C)=O)C(=O)O[C@H](Cc2ccccc2)C(=O)N1C [Compound (A1)] (Ac-[X1][dPhLac][NMeDha]A[NMeA][X1](Leu(3R-OH,Nα-propionyl))[NMeT](Me); ester 1-C)	4.9 L/kg
